All values here come from the supplement of paper PMC10307832.

tested on: NCI-H3122; assay: relative viability (nuclei count vs DMSO), 5 days (fraction); higher = more cells survive; settings: first compound 0.6325 µM
READOUT_LABEL: relative viability

- COCC1(CO)C(=O)C2CCN1CC2 (centres undefined) [PRIMA-1MET] + Cc1cc(Nc2cc(N3CCN(C)CC3)nc(Sc3ccc(NC(=O)C4CC4)cc3)n2)n[nH]1 [Tozasertib] (partner 0.1 µM): 0.361
- COCC1(CO)C(=O)C2CCN1CC2 (centres undefined) [PRIMA-1MET] + CC(C)C[C@H](NC(=O)[C@H](Cc1ccccc1)NC(=O)c1cnccn1)B(O)O [Bortezomib] (partner 0.002 µM): 1.01
- COCC1(CO)C(=O)C2CCN1CC2 (centres undefined) [PRIMA-1MET] + CC(=O)Nc1cccc(-n2c(=O)n(C3CC3)c(=O)c3c(Nc4ccc(I)cc4F)n(C)c(=O)c(C)c32)c1 [Trametinib] (partner 0.02 µM): 0.237
- COCC1(CO)C(=O)C2CCN1CC2 (centres undefined) [PRIMA-1MET] + Cc1nc(NC(=O)N2CCC[C@H]2C(N)=O)sc1-c1ccnc(C(C)(C)C(F)(F)F)c1 [Alpelisib] (partner 2 µM): 0.683
